// reported LDH for each item listed
Organism: Rattus norvegicus
Experiment: Open TG-GATES - Regimen: Daily Repeat
Assay type: toxicity, organism-based, Sprague-Dawley
Parameters: regimen Daily Repeat, gender Male, age 6 weeks
Settings: in vivo, po, 100 mg/kg, […], tissue Plasma, route gavage, dose level Low, time 14 day
MEASURED PROPERTY: LDH

>>> reported_result("COC1=CC(=O)C[C@@H](C)[C@]12Oc1c(Cl)c(OC)cc(OC)c1C2=O [GRISEOFULVIN]")
"171.8 IU/L"
>>> reported_result("COc1ccc2[nH]c([S+]([O-])Cc3ncc(C)c(OC)c3C)nc2c1 (stereo not given) [OMEPRAZOLE]")
"198.2 IU/L"
>>> reported_result("CCOc1ccc(NC(=O)CC(C)O)cc1 (stereo not given) [BUCETIN]")
"77.4 IU/L"
>>> reported_result("NC(N)=Nc1nc(CSCCC(N)=NS(N)(=O)=O)cs1 [FAMOTIDINE]")
"181 IU/L"
>>> reported_result("CCOC(=O)CCC(=O)O[C@H]1[C@H](O[C@@H]2[C@@H](C)[C@H](O[C@H]3C[C@@](C)(OC)[C@@H](O)[C@H](C)O3)[C@@H](C)C(=O)O[C@H](CC)[C@@](C)(O)[C@H](O)[C@@H](C)C(=O)[C@H](C)C[C@@]2(C)O)O[C@H](C)C[C@@H]1N(C)C [ERYTHROMYCIN ETHYLSUCCINATE]")
"150 IU/L"

Reference source for all entries: ChEMBL document CHEMBL3885861
